Target: Acetylcholinesterase (Homo sapiens)
OBSERVABLE: pIC50
pIC50 is a log-scale quantity: -log10 of the concentration expressed in molar.

Q) Give Acetylcholinesterase (Homo sapiens) pIC50 for C#CCNC1CCc2ccc(OC(=O)N(C)c3ccc(OC)cc3)cc21 (stereo unspecified)
A) 6.07

----------
Target: UniProt:P22303
Test: In vitro inhibitory concentration against purified Acetylcholinesterase of human erythrocytes; value ranges from 28.1-58.3
OBSERVABLE: pIC50
pIC50 is a log-scale quantity: -log10 of the concentration expressed in molar.

Q) Give its pIC50 value. Item: CCN(C)C(=O)Oc1ccc2c(c1)C(NC)CC2 (stereo unspecified)
A) 4.41

----------
Target: Acetylcholinesterase (Homo sapiens, UniProt P22303)
Sequence (P22303 whole entry): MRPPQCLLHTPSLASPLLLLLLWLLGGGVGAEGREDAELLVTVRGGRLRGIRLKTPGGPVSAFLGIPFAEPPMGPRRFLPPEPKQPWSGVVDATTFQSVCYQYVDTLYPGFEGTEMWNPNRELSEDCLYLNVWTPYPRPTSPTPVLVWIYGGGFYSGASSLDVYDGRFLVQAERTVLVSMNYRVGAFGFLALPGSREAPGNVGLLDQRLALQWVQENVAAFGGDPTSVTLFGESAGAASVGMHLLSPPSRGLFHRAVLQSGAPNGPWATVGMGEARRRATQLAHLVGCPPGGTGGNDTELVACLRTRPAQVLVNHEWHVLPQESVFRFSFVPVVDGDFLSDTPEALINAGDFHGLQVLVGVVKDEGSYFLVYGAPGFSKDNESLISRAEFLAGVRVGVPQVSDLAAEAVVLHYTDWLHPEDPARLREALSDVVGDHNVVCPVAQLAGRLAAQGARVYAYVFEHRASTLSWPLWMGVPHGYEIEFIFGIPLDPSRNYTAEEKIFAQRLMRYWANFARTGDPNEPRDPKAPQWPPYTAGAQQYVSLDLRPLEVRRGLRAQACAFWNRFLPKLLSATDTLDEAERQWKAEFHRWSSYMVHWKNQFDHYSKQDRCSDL
Test: In vitro inhibitory concentration against purified Acetylcholinesterase of human erythrocytes; value ranges from 224-1012
OBSERVABLE: IC50 (µM)
Respond numerically; units are µM and should not be typed.

Q) Give its IC50 value. Item: C#CCNC1CCc2cccc(OC(=O)N(C)CC)c21 (stereo unspecified)
A) 525

----------
Target: Amine oxidase [flavin-containing] A (Rattus norvegicus)
Experiment: In vitro inhibitory concentration against Monoamine oxidase A of rat brain homogenates; value ranges from 260-420
Type: tissue-based
OBSERVABLE: IC50 (µM)
Respond numerically; units are µM and should not be typed.

Q) Give its IC50 value. Item: C#CCN(C)C1CCc2cccc(OC(=O)N(C)C)c21 (stereo unspecified)
A) 330

----------
Biological target: Butyrylcholinesterase (Equus caballus)
Test: In vitro inhibitory concentration against Butyrylcholinesterase of horse serum; value ranges from 0.71-0.86
OBSERVABLE: IC50 (µM)
Respond numerically; units are µM and should not be typed.

Q) Give its IC50 value. Item: C#CCNC1CCc2ccc(OC(=O)N(C)C)cc2C1 (stereo unspecified)
A) 0.77

----------
Biological target: Butyrylcholinesterase (Equus caballus, UniProt Q9N1N9)
Sequence (Q9N1N9 whole entry): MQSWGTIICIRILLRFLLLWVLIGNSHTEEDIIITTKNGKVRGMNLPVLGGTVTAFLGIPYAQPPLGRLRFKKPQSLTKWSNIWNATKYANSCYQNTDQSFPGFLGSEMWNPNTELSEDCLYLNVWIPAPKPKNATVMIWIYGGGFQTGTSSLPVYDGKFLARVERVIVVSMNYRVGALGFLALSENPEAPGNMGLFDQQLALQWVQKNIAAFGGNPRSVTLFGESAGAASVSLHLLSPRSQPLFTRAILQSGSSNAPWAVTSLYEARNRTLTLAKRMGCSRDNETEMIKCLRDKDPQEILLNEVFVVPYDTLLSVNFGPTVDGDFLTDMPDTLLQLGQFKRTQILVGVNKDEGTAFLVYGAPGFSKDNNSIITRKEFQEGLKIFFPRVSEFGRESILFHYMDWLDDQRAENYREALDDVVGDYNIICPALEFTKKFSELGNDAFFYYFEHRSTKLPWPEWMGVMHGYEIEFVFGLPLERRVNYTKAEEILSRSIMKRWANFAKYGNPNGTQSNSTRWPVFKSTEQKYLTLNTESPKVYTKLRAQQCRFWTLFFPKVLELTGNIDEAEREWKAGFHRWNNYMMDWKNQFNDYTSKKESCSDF
Assay: In vitro inhibitory concentration against Butyrylcholinesterase of horse serum; value ranges from 2.1-4.1
OBSERVABLE: pIC50
pIC50 is a log-scale quantity: -log10 of the concentration expressed in molar.

Q) Give its pIC50 value. Item: C#CCNC1CCc2cccc(OC(=O)N(C)C)c21 (stereo unspecified)
A) 5.55

----------
Molecular target: Amine oxidase [flavin-containing] A (Rattus norvegicus, UniProt P21396)
Sequence (P21396 whole entry): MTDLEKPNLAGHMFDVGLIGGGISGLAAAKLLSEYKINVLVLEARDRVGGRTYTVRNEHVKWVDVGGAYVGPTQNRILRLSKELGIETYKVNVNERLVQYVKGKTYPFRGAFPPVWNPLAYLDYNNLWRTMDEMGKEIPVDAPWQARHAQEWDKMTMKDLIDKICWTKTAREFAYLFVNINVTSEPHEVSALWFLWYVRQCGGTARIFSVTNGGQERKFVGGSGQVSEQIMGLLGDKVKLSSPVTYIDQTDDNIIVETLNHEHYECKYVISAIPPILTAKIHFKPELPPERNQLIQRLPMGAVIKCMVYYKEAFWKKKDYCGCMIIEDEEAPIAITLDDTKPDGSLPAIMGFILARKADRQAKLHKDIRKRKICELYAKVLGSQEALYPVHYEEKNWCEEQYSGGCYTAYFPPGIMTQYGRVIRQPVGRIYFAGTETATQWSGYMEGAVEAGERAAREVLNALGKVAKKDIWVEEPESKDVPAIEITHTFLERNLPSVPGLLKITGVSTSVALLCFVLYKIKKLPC
Test: In vitro inhibitory concentration against Monoamine oxidase A of rat brain homogenates; value ranges from 0.47
Format: tissue-based
OBSERVABLE: pIC50
pIC50 is a log-scale quantity: -log10 of the concentration expressed in molar.

Q) Give its pIC50 value. Item: C#CCNC1CCc2ccc(O)cc21 (stereo unspecified)
A) 6.17

----------
Biological target: Butyrylcholinesterase (Equus caballus)
Experiment: In vitro inhibitory concentration against Butyrylcholinesterase of horse serum; value ranges from 10.7-43.7
OBSERVABLE: pIC50
pIC50 is a log-scale quantity: -log10 of the concentration expressed in molar.

Q) Give its pIC50 value. Item: C#CCN(C)C1CCc2cccc(OC(=O)N(C)CC)c21 (stereo unspecified)
A) 4.70

----------
Biological target: Amine oxidase [flavin-containing] A (Rattus norvegicus)
Test: In vitro inhibitory concentration against Monoamine oxidase A of rat brain homogenates; value ranges from 9-52
Assay type: tissue-based
OBSERVABLE: IC50
// return the numeric value with its unit appended

Q) Give its IC50 value. Item: "CNCCc1cccc(OC(=O)N(C)C)c1"
A) 22 µM

----------
Target: Butyrylcholinesterase (Equus caballus)
Assay: In vitro inhibitory concentration against Butyrylcholinesterase of horse serum; value ranges from 1.6-2.4
OBSERVABLE: IC50 (µM)
Respond numerically; units are µM and should not be typed.

Q) Give Butyrylcholinesterase (Equus caballus) IC50 for "C#CCNCCc1cccc(OC(=O)N(C)CCC)c1"
A) 1.9

----------
Target: Acetylcholinesterase (Homo sapiens, UniProt P22303)
OBSERVABLE: IC50 (µM)
Respond numerically; units are µM and should not be typed.

Q) Give its IC50 value. Item: "C#CCN[C@@H]1CCc2ccc(OC(=O)N(C)CC)cc21.Cl"
A) 31.8

----------
Biological target: Acetylcholinesterase (Homo sapiens, UniProt P22303)
Assay: In vitro inhibitory concentration against purified Acetylcholinesterase of human erythrocytes; value ranges from 1.66-3.14
OBSERVABLE: IC50 (nM)
Respond numerically; units are nM and should not be typed.

Q) Give its IC50 value. Item: CN(C)C(=O)Oc1ccc2c(c1)C(N(C)C)CC2 (stereo unspecified)
A) 2150

----------
Molecular target: Acetylcholinesterase (Homo sapiens)
Test: In vitro inhibitory concentration against purified Acetylcholinesterase of human erythrocytes; value ranges from 0.32-0.98
OBSERVABLE: IC50
// return the numeric value with its unit appended

Q) Give its IC50 value. Item: C#CCNC(C)Cc1cccc(OC(=O)N(C)C)c1 (stereo unspecified)
A) 540 nM

----------
Biological target: Acetylcholinesterase (Homo sapiens)
Assay: In vitro inhibitory concentration against purified Acetylcholinesterase of human erythrocytes; value ranges from 7.33-61.5
OBSERVABLE: IC50 (µM)
Respond numerically; units are µM and should not be typed.

Q) Give Acetylcholinesterase (Homo sapiens) IC50 for CCNC(=O)Oc1ccc2c(c1)C(N)CC2 (stereo unspecified)
A) 17.7

----------
Target: Acetylcholinesterase (Homo sapiens, UniProt P22303)
Experiment: In vitro inhibitory concentration against purified Acetylcholinesterase of human erythrocytes; value ranges from 33.4-148
OBSERVABLE: pIC50
pIC50 is a log-scale quantity: -log10 of the concentration expressed in molar.

Q) Give Acetylcholinesterase (Homo sapiens, UniProt P22303) pIC50 for CCN(C)C(=O)Oc1ccc2c(c1)CC(N)CC2 (stereo unspecified)
A) 4.10

----------
Target: Amine oxidase [flavin-containing] A (Rattus norvegicus, UniProt P21396)
Sequence (P21396 whole entry): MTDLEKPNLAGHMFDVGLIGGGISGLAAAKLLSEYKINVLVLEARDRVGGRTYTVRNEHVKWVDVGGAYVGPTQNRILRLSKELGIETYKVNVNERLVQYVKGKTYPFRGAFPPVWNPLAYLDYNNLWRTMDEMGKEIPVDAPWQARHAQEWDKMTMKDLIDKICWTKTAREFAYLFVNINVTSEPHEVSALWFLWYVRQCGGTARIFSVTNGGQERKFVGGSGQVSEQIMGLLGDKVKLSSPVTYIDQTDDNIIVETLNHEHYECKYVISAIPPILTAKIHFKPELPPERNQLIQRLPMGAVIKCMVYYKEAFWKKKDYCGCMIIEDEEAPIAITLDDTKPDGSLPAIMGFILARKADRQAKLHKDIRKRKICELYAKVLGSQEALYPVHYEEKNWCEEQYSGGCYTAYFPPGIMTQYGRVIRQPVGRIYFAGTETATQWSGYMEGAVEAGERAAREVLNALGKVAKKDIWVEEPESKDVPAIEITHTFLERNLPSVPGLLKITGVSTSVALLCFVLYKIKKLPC
Assay: In vitro inhibitory concentration against Monoamine oxidase A of rat brain homogenates; value ranges from 13-17
Format: tissue-based
OBSERVABLE: IC50 (µM)
Respond numerically; units are µM and should not be typed.

Q) Give its IC50 value. Item: C#CCNC(C)Cc1cccc(OC(=O)N(C)CCCC)c1 (stereo unspecified)
A) 15

----------
Molecular target: Acetylcholinesterase (Homo sapiens)
Test: In vitro inhibitory concentration against purified Acetylcholinesterase of human erythrocytes; value ranges from 0.12-0.41
OBSERVABLE: IC50 (nM)
Respond numerically; units are nM and should not be typed.

Q) Give its IC50 value. Item: "CNCCc1cccc(OC(=O)N(C)C)c1"
A) 280

----------
Target: Acetylcholinesterase (Homo sapiens)
Assay: In vitro inhibitory concentration against purified Acetylcholinesterase of human erythrocytes; value ranges from 7.81-39.2
OBSERVABLE: IC50 (µM)
Respond numerically; units are µM and should not be typed.

Q) Give its IC50 value. Item: C#CCNC1CCc2ccc(OC(=O)N(C)CCCCCC)cc21 (stereo unspecified)
A) 15.7

----------
Biological target: Butyrylcholinesterase (Equus caballus, UniProt Q9N1N9)
Test: In vitro inhibitory concentration against Butyrylcholinesterase of horse serum; value ranges from 1.6-3.6
OBSERVABLE: IC50

Q) Give its IC50 value. Item: "C#CCN[C@H]1CCc2ccc(OC(=O)N(C)CC)cc21"
A) 2200 nM
